protocol.notes: CIA study: pharmacokinetics / plasma concentration after oral administration
Format: in vivo, Lewis rats
test.parameters: Lewis, rat, plasma, po, 3 mg/kg, oral 3 mg/kg, day 21, time 2; read-out: Mean Concentration (average plasma concentration)
measured.attribute: concentration at 2 h (ng/mL)

In [3]: df
Out[3]:
                        structure_as_smiles  readout_unit  measured_number
0  Cn1cc(-c2ccccc2)c(-c2cn(C)c(=O)c3[nH]c(-c4cnn(C(F)(F)F)c4)cc23)cc1=O         ng/mL             37.5

----------
protocol.notes: Rat PK study #1 (Compound A PO, methylcellulose vs propylene glycol formulation)
Format: in vivo, Lewis rats
test.parameters: male, Lewis, rat, plasma, po, 10 mg/kg, Lewis rats, PO 10 mg/kg, propylene glycol/Vitamin E TPGS/water formulation, 8 h, individual animals
measured.attribute: concentration at 8 h (ng/mL)

                                   compound  measured_number
0  Cn1cc(-c2ccccc2)c(-c2cn(C)c(=O)c3[nH]c(-c4cnn(C(F)(F)F)c4)cc23)cc1=O [Compound A]              266

----------
system.under.test: BRD4 BD2 (Homo sapiens, UniProt O60885)
Construct: HEK293 cells were transfected using NanoLuc-BRD4-BD1 or NanoLuc-BRD4-BD2 fusion vectors
protocol.notes: NanoBRET bromodomain assay, NanoLuc-BRD4-BD2 in HEK293 cells
Listing of recorded IC50 by entry.
measured.attribute: IC50

>>> print(df.to_string())
                                   compound  measured_attribute          result
0  Cc1cc(-c2cc3c(-c4cc(=O)n(C)cc4-c4ccc(F)cc4)cn(C)c(=O)c3[nH]2)cc(C)n1.Cl [Example 30, hydrochloride]                IC50         < 10 nM
1  Cc1cc(-c2cc3c(-c4cc(=O)n(C)cc4-c4ccc(S(C)(=O)=O)cc4)cn(C)c(=O)c3[nH]2)cc(C)n1 [Example 86]                IC50  200 to 1000 nM
2  Cc1cc(-c2cc3c(-c4cc(=O)n(C)cc4-c4ccc5c(c4)COC5)cn(C)c(=O)c3[nH]2)cc(C)n1.Cl [Example 33, hydrochloride]                IC50         < 10 nM

----------
protocol.notes: Rat PK study #3 (ABBV-744 IV 1 mg/kg and PO 5 mg/kg)
Type: in vivo, SD rats
test.parameters: male, Sprague-Dawley, rat, plasma, iv, 1 mg/kg, SD rats, IV 1 mg/kg, DMSO/PEG-400/Milli-Q water formulation, individual animals
measured.attribute: half-life (h)

>>> df
                        structure_as_smiles  measured_number
0  CCNC(=O)c1cc2c(-c3cc(C(C)(C)O)ccc3Oc3c(C)cc(F)cc3C)cn(C)c(=O)c2[nH]1             1.99

----------
protocol.notes: Dog PK study #1 (Compound A IV and PO, propylene glycol formulation)
Assay type: in vivo, beagle dogs
test.parameters: beagle, dog, plasma, iv, 1 mg/kg, IV 1 mg/kg; mean
measured.attribute: AUC(0-t) (ng·h/mL)

                        structure_as_smiles  measured_attribute  measured_number
0  Cn1cc(-c2ccccc2)c(-c2cn(C)c(=O)c3[nH]c(-c4cnn(C(F)(F)F)c4)cc23)cc1=O            AUC(0-t)             5160

----------
protocol.notes: Rat PK study #3 (ABBV-744 IV 1 mg/kg and PO 5 mg/kg)
Format: in vivo, SD rats
test.parameters: male, Sprague-Dawley, rat, plasma, po, 5 mg/kg, SD rats, PO 5 mg/kg, DMSO/PEG-400/Milli-Q water formulation, 1 h, mean of 3 animals
measured.attribute: concentration at 1 h

In [3]: df
Out[3]:
                        structure_as_smiles    result
0  CCNC(=O)c1cc2c(-c3cc(C(C)(C)O)ccc3Oc3c(C)cc(F)cc3C)cn(C)c(=O)c2[nH]1  59 ng/mL

----------
system.under.test: BRD4 BD1 (Homo sapiens, UniProt O60885)
Construct: HEK293 cells were transfected using NanoLuc-BRD4-BD1 or NanoLuc-BRD4-BD2 fusion vectors
protocol.notes: NanoBRET bromodomain assay, NanoLuc-BRD4-BD1 in HEK293 cells
Listing of recorded IC50 by entry.
measured.attribute: IC50

>>> df
                         structure_as_smiles          result
 0  COCc1ccc(-c2cn(C)c(=O)cc2-c2cn(C)c(=O)c3[nH]c(-c4cnn(C(F)(F)F)c4)cc23)cc1       > 1000 nM
 1  CSCCn1cc(-c2ccccc2)c(-c2cn(C)c(=O)c3[nH]c(-c4cnn(C(F)(F)F)c4)cc23)cc1=O       > 1000 nM
 2  Cn1cc(-c2cc(=O)n(C3CC3)cc2-c2ccccc2)c2cc(-c3cccc(F)c3F)[nH]c2c1=O       > 1000 nM
 3  Cc1cccc(C)c1Oc1cn(C)c(=O)cc1-c1cn(C)c(=O)c2[nH]c(-c3cn(CC(F)(F)F)nc3C)cc12  500 to 1000 nM
 4  Cn1cc(-c2ccccc2)c(-c2cn(C)c(=O)c3[nH]c(-c4ccc(F)cc4F)cc23)cc1=O       > 1000 nM
 5  CCCn1cc(-c2cc3c(-c4cc(=O)n(C)cc4Oc4c(C)cccc4C)cn(C)c(=O)c3[nH]2)cn1       > 1000 nM
 6  COc1cccc(-c2cc3c(-c4cc(=O)n(C5CC5)cc4Oc4c(C)cccc4C)cn(C)c(=O)c3[nH]2)c1F       > 1000 nM
 7  Cn1cc(-c2cccc(C(C)(C)O)c2)c(-c2cn(C)c(=O)c3[nH]c(-c4ccc(F)cc4F)cc23)cc1=O       > 1000 nM
 8  COCc1cccc(-c2cn(C)c(=O)cc2-c2cn(C)c(=O)c3[nH]c(-c4cnn(C(F)(F)F)c4)cc23)c1       > 1000 nM
 9  Cn1cc(-c2ccccc2)c(-c2cn(C)c(=O)c3[nH]c(-c4cccnc4)cc23)cc1=O    50 to 500 nM
10  Cn1cc(-c2cc(=O)n(C3CC3)cc2-c2ccccc2)c2cc(-c3ccc(F)cc3F)[nH]c2c1=O       > 1000 nM
11  Cc1cc(-c2cc3c(-c4cc(=O)n(C)cc4-c4ccccc4F)cn(C)c(=O)c3[nH]2)cc(C)n1.Cl  500 to 1000 nM
12  CC(C)n1cc(-c2cc3c(-c4cc(=O)n(C)cc4-c4cccc(CN5CCOCC5)c4)cn(C)c(=O)c3[nH]2)cn1       > 1000 nM
13  Cn1cc(-c2cccc(CN3CCNCC3)c2)c(-c2cn(C)c(=O)c3[nH]c(-c4cnn(C(F)(F)F)c4)cc23)cc1=O       > 1000 nM

----------
protocol.notes: Rat PK study #4 (Compound A PO 0.2 and 1.0 mg/kg, propylene glycol formulation)
Type: in vivo, Lewis rats
test.parameters: male, Lewis, rat, plasma, po, 0.2 mg/kg, 0.2 mg/kg PO, propylene glycol-based formulation; individual animals; read-out: MRTInf_obs
measured.attribute: MRT inf (h)

>>> df
                                   molecule  measured_number
0  Cn1cc(-c2ccccc2)c(-c2cn(C)c(=O)c3[nH]c(-c4cnn(C(F)(F)F)c4)cc23)cc1=O [Compound A]             8.72

----------
protocol.notes: Dog PK study #4 (Compound A PO daily 14 days, 1/3/10 mg/kg; toxicokinetics, platelet counts)
Type: in vivo, beagle dogs
test.parameters: beagle, dog, plasma, oral; after daily administration for 14 days, 10 mg/kg, Female, 1 h
measured.attribute: concentration at 1 h (ng/mL)

>>> df
                        structure_as_smiles  readout_unit  measured_number
0  Cn1cc(-c2ccccc2)c(-c2cn(C)c(=O)c3[nH]c(-c4cnn(C(F)(F)F)c4)cc23)cc1=O         ng/mL             1630

----------
protocol.notes: Dog PK study #2 (Compound A IV, HPBCD formulation)
Type: in vivo, beagle dogs
test.parameters: beagle, dog, plasma, iv, 1 mg/kg, IV 1 mg/kg, HPBCD formulation, 8 h; mean
measured.attribute: concentration at 8 h

>>> print(df.to_string())
                        structure_as_smiles     result
0  Cn1cc(-c2ccccc2)c(-c2cn(C)c(=O)c3[nH]c(-c4cnn(C(F)(F)F)c4)cc23)cc1=O  100 ng/mL

Attribution: patent US20260217701A1
